// provenance: patent US10653688B2

molecular target: recombinant GSK3β kinase (Homo sapiens (Human), UniProt P49841); assay: GSK3β kinase assay (Ser/Thr 09 peptide Z-lyte, FRET); type: biochemical; settings: GSK3β kinase; head says EC50, method says IC50; ATP 46 μM;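 also: FRET read-out as coumarin over fluorescein emission ratio, compounds incubated one hour at room temperature, IC50 from dose-response curve fit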
Sequence (P49841 whole entry): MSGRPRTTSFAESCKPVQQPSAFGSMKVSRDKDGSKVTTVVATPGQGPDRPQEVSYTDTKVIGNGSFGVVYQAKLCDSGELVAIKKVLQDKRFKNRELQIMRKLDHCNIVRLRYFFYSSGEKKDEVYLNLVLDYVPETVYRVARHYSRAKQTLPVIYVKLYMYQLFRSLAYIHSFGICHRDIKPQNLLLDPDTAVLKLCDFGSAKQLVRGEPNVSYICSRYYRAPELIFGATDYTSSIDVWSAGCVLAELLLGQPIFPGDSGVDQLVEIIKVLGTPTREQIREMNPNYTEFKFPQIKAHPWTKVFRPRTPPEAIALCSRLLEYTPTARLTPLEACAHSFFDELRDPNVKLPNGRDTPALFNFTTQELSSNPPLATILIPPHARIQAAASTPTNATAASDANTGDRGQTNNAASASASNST
resultType: EC50 (µM)

# smilesEntry, EC50 [µM]
records = [
    ("CC(=O)Nc1cncc(-c2ccc3cnc(NC(=O)C4CCN(C)CC4)cc3c2)c1", 0.487),
]

I: O=C(Nc1cc2cc(-c3cccnc3)ccc2cn1)C1CC1
II: CN1CCCN(CC(=O)Nc2cc3cc(-c4cccnc4)ccc3cn2)CC1
Q: Of I and II , whose reported EC50 is numerically smaller? Please respond with the label that marks your chosen entry.
A: I
(I: 0.056 µM, II: 0.722 µM)

P: CN1CCC(C(=O)Nc2cc3cc(-c4ccccn4)ccc3cn2)CC1
Q: O=C(CN1CCCC1)Nc1cc2cc(-c3ccnnc3)ccc2cn1
Q: For this pair, P and Q , which shows a numerically higher EC50? Please respond with the label that marks your chosen entry.
A: P

a: CC(C)Nc1cncc(-c2ccc3cnc(NC(=O)C4CCN(C)CC4)cc3c2)n1
b: O=C(Nc1cc2cc(-c3cncc(NC4CCNCC4)n3)ccc2cn1)C1CCC(F)(F)CC1
c: O=C(Nc1cc2cc(-c3cncc(CN4CCOCC4)c3)ccc2cn1)C1CC1
d: O=C(Nc1cc2cc(-c3cncc(NC4CCNCC4)n3)ccc2cn1)C1CCOCC1
Q: Arrange by EC50, high to low. I'd appreciate it if you listed the labels in the requested order.
A: d, c, b, a

a: O=C(Nc1cc2cc(-c3cncc(NCC4(F)CNC4)n3)ccc2cn1)C1CC1
b: CC(C)Nc1cncc(-c2ccc3cnc(NC(=O)c4cccc(C5CCNCC5)c4)cc3c2)n1
Q: For this pair, a and b , which shows a numerically higher EC50? Please respond with the label that marks your chosen entry.
A: b

###

molecular target: recombinant DYRK1A kinase (Homo sapiens (Human)); experiment: DYRK1A kinase assay (Ser/Thr 18 peptide Z-lyte, FRET); conditions: DYRK1A kinase; head says EC50, method says IC50; ATP 30 μM
resultType: EC50 (nM)

# smilesEntry, readoutNumber
records = [
    ("CC(C)N1CCC(Nc2cncc(-c3ccc4cnc(NC(=O)C5CC5)cc4c3)n2)CC1", 1),
    ("CN1CCN(c2cc(C(=O)Nc3cc4cc(-c5cnc6ocnc6c5)ccc4cn3)ccn2)CC1", 14),
]

I: CN1CCN(c2cc(C(=O)Nc3cc4cc(-c5cnc6[nH]ccc6n5)ccc4cn3)ccn2)CC1
II: CC(C)Nc1cncc(-c2ccc3cnc(NC(=O)c4cn(C5CCNCC5)nn4)cc3c2)n1
Q: For this pair, I and II , which shows a numerically higher EC50? Please respond with the label that marks your chosen entry.
A: I
(I: 38 nM, II: 2 nM)

###

target: recombinant DYRK1A kinase (Homo sapiens (Human)); test: DYRK1A kinase assay (Ser/Thr 18 peptide Z-lyte, FRET); conditions: DYRK1A kinase; head says EC50, method says IC50; ATP 30 μM
resultType: EC50 (nM)

Sample records with EC50:
# compound, assaySystem, valueUnits, EC50
records = [
    ("CN1CCN(c2cc(C(=O)Nc3cc4cc(-c5cnc6cc[nH]c6c5)ccc4cn3)ccn2)CC1", "recombinant DYRK1A kinase (Homo sapiens (Human))", "nM", 4),
    ("CC(C)n1cc(C(=O)Nc2cc3cc(-c4cncc(NC5CCN(C)CC5)n4)ccc3cn2)cn1", "recombinant DYRK1A kinase (Homo sapiens (Human))", "nM", 2),
    ("CN1CCCC(C(=O)Nc2cc3cc(-c4cnccn4)ccc3cn2)CC1 (stereo not shown)", "recombinant DYRK1A kinase (Homo sapiens (Human))", "nM", 27),
]

A: Cc1ncc(-c2ccc3cnc(NC(=O)c4ccnc(N5CCN(C)CC5)c4)cc3c2)cn1
B: COc1cncc(-c2ccc3cnc(NC(=O)c4ccnc(N5CCN(C)CC5)c4)cc3c2)c1
C: CN1CCN(c2cc(C(=O)Nc3cc4cc(-c5cnc6cc[nH]c6n5)ccc4cn3)ccn2)CC1
Q: List the 3 entries from lowest EC50 to highest EC50 value. I'd appreciate it if you listed the labels in the requested order.
A: B, C, A
